Numbers sourced from ChEMBL document CHEMBL1137036.

- test-system: Melanin-concentrating hormone receptor 1 (Homo sapiens)
- Sequence (Q99705 whole entry): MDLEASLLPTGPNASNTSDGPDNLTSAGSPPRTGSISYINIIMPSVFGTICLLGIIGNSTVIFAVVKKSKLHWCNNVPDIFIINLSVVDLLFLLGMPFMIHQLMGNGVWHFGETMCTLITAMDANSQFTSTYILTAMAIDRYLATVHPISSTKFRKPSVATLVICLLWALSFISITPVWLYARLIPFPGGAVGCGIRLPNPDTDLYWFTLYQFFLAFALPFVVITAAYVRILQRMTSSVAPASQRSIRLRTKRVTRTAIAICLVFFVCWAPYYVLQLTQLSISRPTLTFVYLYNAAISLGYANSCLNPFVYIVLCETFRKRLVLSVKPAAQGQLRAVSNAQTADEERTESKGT
- test-method-notes: Concentration required to inhibit 50% of melanin-concentrating hormone induced [Ca2+] flux in IMR-32 cells measured by using a fluorometric imaging plate reader
- Format: functional, cell-based
readout-type: IC50 (nM)
One number for each entry, in nM.

Could you tell me IC50 for each of these molecules? They are listed below.
1. CNc1ccc2cccc(OC3CCN(c4ccc5c(c4)OCCO5)C3)c2n1 (centres undefined)
2. CC(C)Cc1ccc(N2CCC(Oc3cccc4ccc(NCc5ccc(-c6cccc(C(F)(F)F)c6)o5)nc34)C2)cc1 (centres undefined)
3. Nc1ccc2cccc(OC3CCN(c4ccc5c(c4)OCCO5)C3)c2n1 (centres undefined)
4. CC(C)(C)c1ccc(S(=O)(=O)N2CC[C@H](Oc3cccc4ccc(N)nc34)C2)cc1
5. Nc1ccc2cccc(O[C@@H]3CCN(c4ccc5c(c4)OC(F)(F)O5)C3)c2n1
6. Nc1ccc2cccc(OCCCNC(=O)c3cccc(Cl)c3)c2n1
7. CC(=O)Nc1ccc(CN2CC[C@H](Oc3cccc4ccc(N)nc34)C2)cc1

Result block:
1. 244
2. 41
3. 51
4. 1140
5. 531
6. 7
7. 1260
